Values from paper PMC8279484

System: THP-1-MF0 macrophage
Assay Name: Phagocytosis of fluorescent E. coli bioparticles by THP-1-MF0 macrophages
Assay type: cell-based, human
Test Conditions: 30 min pretreatment, 2 h bioparticles; read-out: Potency EC50
Measured Metric: pEC50
// pEC50 here means minus log10 of the molar concentration (mol/L)

CC[C@@H](O)/C=C/C=C\C[C@@H](O)/C=C/C=C/C=C\[C@@H](O)CCCC(=O)O	12.00

Inquiry: Recall the recorded pEC50 for "CCCCC[C@H](O)[C@H](O)/C=C/C=C/C=C\C=C\[C@@H](O)CCCC(=O)O" with THP-1-MF0 macrophage and state it.
Reply text: 8.30

###

Test system: THP-1 LUCIA monocytes
Assay Name: In vitro safety study: Safety index (Si), activity versus toxicity
Assay type: cell-based, human
Test Conditions: ratio of intrinsic TC50 to extrinsic hIC50
Measured Metric: Safety Index TC50/IC50
Number only, no unit.

CCCCCCC[C@H](O)c1nc2ccccc2nc1/C=C/[C@@H](O)[C@@H](O)CCCC(=O)OC [(S)-8]	10

Consider the record given below.
Inquiry: Which Safety Index TC50/IC50 is listed for CCCCC[C@@H](O)c1nc2ccccc2nc1/C=C/[C@@H](O)[C@@H](O)CCCC(=O)OC [(R)-6] ?
Reply text: 20

###

Experimental System: NF-κB
Assay Name: LPS-induced NF-κB-driven luciferase gene reporter assay in THP-1 Lucia monocytes
Type: cell-based, human
Test Conditions: LPS 50 ng/mL, 24 h
Measured Metric: IC50 (range in words)

CCC[C@@H](O)c1nc2ccccc2nc1/C=C/[C@@H](O)[C@@H](O)CCCC(=O)OC [(R)-7]	“nM” range
CCCCCCC[C@H](O)c1nc2ccccc2nc1/C=C/[C@@H](O)[C@@H](O)CCCC(=O)OC [(S)-8]	“pM” range
CCCCCCC[C@@H](O)c1nc2ccccc2nc1/C=C/[C@@H](O)[C@@H](O)CCCC(=O)OC [(R)-8]	“pM” range
CCC[C@H](O)c1nc2ccccc2nc1/C=C/[C@@H](O)[C@@H](O)CCCC(=O)OC [(S)-7]	“nM” range

###

Test system: NF-κB
Assay Name: LPS-induced NF-κB-driven luciferase gene reporter assay in THP-1 Lucia monocytes
Assay type: cell-based, human
Test Conditions: sum of efficacy, potency, slope scores relative to LXA4 (1)
Measured Metric: (Aggregate) Rel. PD Score
Number only, no unit.

Inquiry: Which (Aggregate) Rel. PD Score is listed for CCCCCCC[C@@H](O)c1nc2ccccc2nc1/C=C/[C@@H](O)[C@@H](O)CCCC(=O)OC [(R)-8] ?
Reply text: 0

Inquiry: Can you check CCCCC[C@H](O)c1nc2ccccc2nc1/C=C/[C@H]1OC(C)(C)O[C@H]1CCCC(=O)OC [(S)-17] next?
Reply text: -3

###

System: THP-1 LUCIA monocytes
Assay Name: Intrinsic cytotoxicity: LDH release without LPS
Assay type: cell-based, human
Test Conditions: half-maximal intrinsic LDH-associated toxic activity, no LPS
Intrinsic Toxicity TC50 (pM) values, listed per item

CCCCC[C@H](O)c1nc2ccccc2nc1/C=C/[C@@H](O)[C@@H](O)CCCC(=O)OC [(S)-6]	200 pM
CCCCC[C@@H](O)c1nc2ccccc2nc1/C=C/[C@@H](O)[C@@H](O)CCCC(=O)OC [(R)-6]	500 pM
CCCCCCC[C@@H](O)c1nc2ccccc2nc1/C=C/[C@@H](O)[C@@H](O)CCCC(=O)OC [(R)-8]	10,000 pM
CCCCCCC[C@H](O)c1nc2ccccc2nc1/C=C/[C@@H](O)[C@@H](O)CCCC(=O)OC [(S)-8]	100 pM
CCC[C@@H](O)c1nc2ccccc2nc1/C=C/[C@@H](O)[C@@H](O)CCCC(=O)OC [(R)-7]	2,000 pM

Inquiry: Which Intrinsic Toxicity TC50 (pM) is listed for CCC[C@H](O)c1nc2ccccc2nc1/C=C/[C@@H](O)[C@@H](O)CCCC(=O)OC [(S)-7] ?
Reply text: 110,000 pM

Inquiry: Can you check CCCCC[C@H](O)c1nc2ccccc2nc1/C=C/[C@H]1OC(C)(C)O[C@H]1CCCC(=O)OC [(S)-17] next?
Reply text: 100 pM

Inquiry: Can you check CCCCC[C@@H](O)c1nc2ccccc2nc1/C=C/[C@H]1OC(C)(C)O[C@H]1CCCC(=O)OC [(R)-17] next?
Reply text: 100 pM

###

System: NF-κB
Assay Name: LPS-induced NF-κB-driven luciferase gene reporter assay in THP-1 Lucia monocytes
Assay type: cell-based, human
Test Conditions: approximate extent; 1 pM–1 μM
Method: Mycoplasma-free THP-1-Lucia NF-κB cells were grown in an RPMI 1640 (Gibco) medium containing 2 mM L-glutamine, 1.50 g/L sodium bicarbonate, 4.50 g/L glucose, 10 mM N-(2-hydroxyethyl)piperazine-N′-ethanesulfonic acid (HEPES), and 1 mM sodium pyruvate. […] NFκB activity was monitored in the human THP-1 monocytic leukemia cell line containing a stably integrated NF-κB-inducible Lucia reporter construct (as previously reported).[21] […]
Measured Metric: reduction of LPS-induced NF-κB-driven luciferase activity

Look over these answered cases.
CCC[C@H](O)c1nc2ccccc2nc1/C=C/[C@@H](O)[C@@H](O)CCCC(=O)OC [(S)-7]	30–35%
CCCCCCC[C@H](O)c1nc2ccccc2nc1/C=C/[C@@H](O)[C@@H](O)CCCC(=O)OC [(S)-8]	10–20%
CCC[C@@H](O)c1nc2ccccc2nc1/C=C/[C@@H](O)[C@@H](O)CCCC(=O)OC [(R)-7]	30–35%
CCCCC[C@@H](O)c1nc2ccccc2nc1/C=C/[C@H]1OC(C)(C)O[C@H]1CCCC(=O)OC [(R)-17]	least effective
CCCCCCC[C@@H](O)c1nc2ccccc2nc1/C=C/[C@@H](O)[C@@H](O)CCCC(=O)OC [(R)-8]	10–20%

Inquiry: Recall the recorded reduction of LPS-induced NF-κB-driven luciferase activity for CCCCC[C@H](O)c1nc2ccccc2nc1/C=C/[C@@H](O)[C@@H](O)CCCC(=O)OC [(S)-6] with NF-κB and state it.
Reply text: 25–35%

Inquiry: Can you check CCCCC[C@H](O)c1nc2ccccc2nc1/C=C/[C@H]1OC(C)(C)O[C@H]1CCCC(=O)OC [(S)-17] next?
Reply text: least effective

###

System: THP-1 LUCIA monocytes
Assay Name: Intrinsic cytotoxicity: LDH release without LPS
Type: cell-based, human
Test Conditions: LDH-associated level of cytotoxicity (high / moderate / low)
Measured Metric: Intrinsic Toxicity Level

Look over these answered cases.
CCCCCCC[C@H](O)c1nc2ccccc2nc1/C=C/[C@@H](O)[C@@H](O)CCCC(=O)OC [(S)-8]	Low
CCC[C@@H](O)c1nc2ccccc2nc1/C=C/[C@@H](O)[C@@H](O)CCCC(=O)OC [(R)-7]	Low-Mod.
CCCCC[C@H](O)c1nc2ccccc2nc1/C=C/[C@@H](O)[C@@H](O)CCCC(=O)OC [(S)-6]	Low-Mod.
CCC[C@H](O)c1nc2ccccc2nc1/C=C/[C@@H](O)[C@@H](O)CCCC(=O)OC [(S)-7]	Low-Mod.

Inquiry: Which Intrinsic Toxicity Level is listed for CCCCCCC[C@@H](O)c1nc2ccccc2nc1/C=C/[C@@H](O)[C@@H](O)CCCC(=O)OC [(R)-8] ?
Reply text: Low-Mod.

###

System: THP-1 LUCIA monocytes
Assay Name: Intrinsic cytotoxicity: LDH release without LPS
Type: cell-based, human
Test Conditions: absence of LPS, 24 h; controls Dex 1 μM, 2 1 pM, 5 1 pM
Protocol: We investigated the potential cytotoxicity of all candidate sLXms by assaying LDH release.[50] The response to LPS was arbitrarily set to 100%, and values were expressed relative to this. As previously reported by others, LPS provokes LDH release.[51] […] Lactate dehydrogenase (LDH) was assayed in cell supernatants to investigate possible cytotoxicity of the lead compound. […] Cytotoxicity was evaluated relative to vehicle controls. […]
Measured Metric: intrinsic LDH release versus vehicle / spontaneous cell release

CCCCC[C@@H](O)c1nc2ccccc2nc1/C=C/[C@@H](O)[C@@H](O)CCCC(=O)OC [(R)-6]	lower than the vehicle
CCCCCCC[C@H](O)c1nc2ccccc2nc1/C=C/[C@@H](O)[C@@H](O)CCCC(=O)OC [(S)-8]	lower than the vehicle
CCC[C@@H](O)c1nc2ccccc2nc1/C=C/[C@@H](O)[C@@H](O)CCCC(=O)OC [(R)-7]	lower than the vehicle

###

Tested on: NF-κB
Assay Name: LPS-induced NF-κB-driven luciferase gene reporter assay in THP-1 Lucia monocytes
Type: cell-based, human
Test Conditions: Homo sapiens, THP-1; LPS 50 ng/mL, 24 h; read-out: Potency IC50
Protocol: Mycoplasma-free THP-1-Lucia NF-κB cells were grown in an RPMI 1640 (Gibco) medium containing 2 mM L-glutamine, 1.50 g/L sodium bicarbonate, 4.50 g/L glucose, 10 mM N-(2-hydroxyethyl)piperazine-N′-ethanesulfonic acid (HEPES), and 1 mM sodium pyruvate. […] NFκB activity was monitored in the human THP-1 monocytic leukemia cell line containing a stably integrated NF-κB-inducible Lucia reporter construct (as previously reported).[21] […]
IC50 values, listed per item
Your answer should be a number followed by the unit of measure.

Look over these answered cases.
CCC[C@@H](O)c1nc2ccccc2nc1/C=C/[C@@H](O)[C@@H](O)CCCC(=O)OC [(R)-7]	4000 pM
CCCCCCC[C@@H](O)c1nc2ccccc2nc1/C=C/[C@@H](O)[C@@H](O)CCCC(=O)OC [(R)-8]	40 pM
CCC[C@H](O)c1nc2ccccc2nc1/C=C/[C@@H](O)[C@@H](O)CCCC(=O)OC [(S)-7]	1000 pM
CCCCCCC[C@H](O)c1nc2ccccc2nc1/C=C/[C@@H](O)[C@@H](O)CCCC(=O)OC [(S)-8]	10 pM
CCCCC[C@H](O)c1nc2ccccc2nc1/C=C/[C@H]1OC(C)(C)O[C@H]1CCCC(=O)OC [(S)-17]	3 pM

Consider the record given below.
Inquiry: Recall the recorded IC50 for CCCCC[C@@H](O)c1nc2ccccc2nc1/C=C/[C@H]1OC(C)(C)O[C@H]1CCCC(=O)OC [(R)-17] with NF-κB and state it.
Reply text: 1 pM
